ASSAY_TEXT: Evaluation of hippocampal distribution in mouse
Assay type: in vivo
MEASUREMENT_CONDITIONS: male, ICR, mouse, hippocampus/plasma, po, 10 mg/kg, male ICR mice, 10 mg/kg oral, 1 h after administration; read-out: Ratio (hippocampus/plasma), Mean
Structures can show the parent of a compound that is named as a salt.
ENDPOINT_NAME: Kp at 1 h
// print number alone

Quickly give me recorded Kp at 1 h for Cc1nnc(NC(=O)c2cc([C@@H]3C[C@H]3NC3CCC3)cs2)s1 [Example 84, dihydrochloride]
0.339

----------
ASSAY_TEXT: Evaluation of blood cell number in mouse
Type: in vivo
MEASUREMENT_CONDITIONS: male ICR mice, oral, repeated 7 or 9 days, 1 mg/kg
Structures can show the parent of a compound that is named as a salt.
ENDPOINT_NAME: Red blood cells, Mean

COMPOUND	Red blood cells, Mean
Cc1nnc(NC(=O)c2cc([C@@H]3C[C@H]3NCC3CC3)c(C)s2)s1 [Example 95, fumarate]	888 10^4 cells
Cc1nnc(NC(=O)c2cc([C@@H]3C[C@H]3NCC3CC3)cs2)s1 [Example 82, dihydrochloride]	899 10^4 cells
O=C(NC1CCOCC1)c1csc([C@@H]2C[C@H]2NCC2CC2)c1 [Example 71, hydrochloride]	873 10^4 cells
Cc1nnc(NC(=O)c2cc([C@@H]3C[C@H]3NC3CCC3)c(C)s2)s1 [Example 99, hydrochloride]	892 10^4 cells

Now for a further compound.
Answer with the recorded Red blood cells, Mean of Cc1nnc(NC(=O)c2cc([C@@H]3C[C@H]3NCC3CCOCC3)c(C)s2)s1 [Example 97, hydrochloride] only.
902 10^4 cells
